I'd be grateful if you could share measured IC50 for these entries.
# EXPERIMENTAL SYSTEM: DRB1*0701 (DR7) (Homo sapiens, UniProt P01903+P01911, A100R/A102G/A103Q/D57E/D86V/E43K/F76Y/K127E/L162R/M171V/P40G/Q125H/Q99D/R33Q/R42Y/R54Q/S133A/S66F/T210M/V115G/Y107V/Y59L/Y89S)
# PROTOCOL: Class II peptide-binding assay, DR7;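 note: unlabeled peptides compete with an iodinated probe peptide for binding to affinity-purified HLA-DR at neutral pH, DR amount titered to bind a small tracer fraction, IC50 approximating Kd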
# TEST SETTINGS: read-out: DR7 nM (In IC50 Format); purified HLA DR7
Square brackets hold non-standard residues; d marks the D form. Peptide text beside a SMILES is read from it.
Reply with just the number (in nM).

-- ask Can you look up the measured IC50 of CC[C@H](C)[C@H](NC(=O)[C@H](C)NC(=O)CNC(=O)[C@H](Cc1ccccc1)NC(=O)[C@H](CC(N)=O)NC(=O)[C@H](CC(N)=O)NC(=O)[C@H](N)CO)C(=O)N[C@@H](CC(C)C)C(=O)N[C@@H](CO)C(=O)N[C@@H](CO)C(=O)N[C@H](C(=O)N[C@@H](CC(N)=O)C(=O)N[C@H](C(=O)NCC(N)=O)C(C)C)[C@@H](C)O [Peptide 735.05] (H-[dS]NNFGAILSSTNVG-NH2) for me?
-- reply 12500

-- ask Then this compound: CC(C)C[C@H](NC(=O)[C@@H](NC(=O)[C@@H](NC(=O)[C@H](CCC(N)=O)NC(=O)[C@H](CCCNC(=N)N)NC(=O)[C@H](CCC(N)=O)NC(=O)[C@H](Cc1ccccc1)NC(=O)[C@H](C)NC(=O)[C@H](C)NC(=O)[C@H](N)Cc1ccc(O)cc1)[C@@H](C)O)[C@@H](C)O)C(=O)N[C@@H](CCCCN)C(=O)N[C@@H](C)C(=O)N[C@@H](C)C(=O)N[C@H](C)C(N)=O [Peptide 781.16] (H-[dY]AAFQRQTTLKAA[dA]-NH2)
-- reply 2780

-- ask Then this compound: CSCC[C@H](N)C(=O)NCC(=O)N[C@@H](CCC(N)=O)C(=O)N[C@@H](CC(N)=O)C(=O)N[C@@H](CC(C)C)C(=O)N[C@@H](CO)C(=O)N[C@H](C(=O)N[C@@H](CO)C(=O)N[C@@H](CC(N)=O)C(=O)N1CCC[C@H]1C(=O)N[C@@H](CC(C)C)C(=O)NCC(=O)N[C@@H](Cc1ccccc1)C(=O)N[C@@H](Cc1ccccc1)C(=O)N1CCC[C@H]1C(=O)N[C@@H](CC(=O)O)C(=O)N[C@@H](Cc1c[nH]cn1)C(=O)O)[C@@H](C)O [Peptide 800.01]
-- reply 154

-- ask Then this compound: CC[C@H](C)[C@H](NC(=O)[C@@H](NC(=O)[C@@H](NC(=O)[C@H](CCC(=O)O)NC(=O)[C@H](CCCNC(=N)N)NC(=O)CN)[C@@H](C)O)C(C)C)C(=O)N[C@@H](CCC(=O)O)C(=O)N[C@@H](Cc1ccc(O)cc1)C(=O)N[C@@H](CC(C)C)C(=O)N[C@H](C(=O)N[C@@H](CO)C(=O)N[C@@H](Cc1ccccc1)C(=O)NCC(=O)N[C@H](C(=O)N[C@@H](Cc1c[nH]c2ccccc12)C(=O)O)C(C)C)C(C)C [Peptide 802.04]
-- reply 67.6

-- ask Then this compound: C[C@H](NC(=O)[C@H](C)NC(=O)[C@H](C)NC(=O)[C@H](C)NC(=O)[C@H](Cc1ccc(O)cc1)NC(=O)[C@H](C)NC(=O)[C@@H](C)N)C(=O)N[C@@H](C)C(=O)N[C@@H](C)C(=O)N[C@@H](CCCCN)C(=O)N[C@@H](C)C(=O)N[C@@H](C)C(=O)N[C@H](C)C(N)=O [Peptide 762.01] (H-[dA]AYAAAAAAKAA[dA]-NH2)
-- reply 1670

-- ask Then this compound: CSCC[C@H](NC(=O)[C@H](CC(C)C)NC(=O)[C@H](CCC(=O)O)NC(=O)CNC(=O)[C@H](Cc1c[nH]c2ccccc12)NC(=O)[C@@H](N)CS)C(=O)N[C@H](C(=O)N[C@@H](CC(C)C)C(=O)N[C@@H](C)C(=O)N[C@H](C(=O)N[C@@H](Cc1c[nH]c2ccccc12)C(=O)N[C@H](C(=O)NCC(=O)N[C@H](C(=O)N[C@@H](CC(N)=O)C(=O)N[C@@H](CC(C)C)C(=O)N[C@@H](CCC(=O)O)C(=O)N[C@@H](CC(=O)O)C(=O)O)C(C)C)C(C)C)[C@@H](C)O)[C@@H](C)O [Peptide 802.02]
-- reply 6250

-- ask Then this compound: CC[C@H](C)[C@H](NC(=O)[C@H](CCCNC(=N)N)NC(=O)[C@H](CO)NC(=O)[C@H](Cc1ccccc1)NC(=O)[C@@H](NC(=O)[C@H](CO)NC(=O)[C@H](CO)NC(=O)[C@H](CC(C)C)NC(=O)[C@@H]1CCCN1C(=O)[C@H](CO)NC(=O)[C@H](C)NC(=O)[C@@H](NC(=O)[C@@H](NC(=O)[C@H](CC(C)C)NC(=O)[C@@H](NC(=O)[C@@H]1CCCN1C(=O)[C@@H](N)CC(N)=O)C(C)C)[C@@H](C)O)[C@@H](C)O)[C@@H](C)CC)C(=O)O [Peptide 801.02]
-- reply 63.1

-- ask Then this compound: C[C@H](NC(=O)[C@H](C)NC(=O)[C@H](C)NC(=O)[C@H](Cc1ccc(O)cc1)NC(=O)[C@H](C)NC(=O)[C@@H](C)N)C(=O)N[C@@H](C)C(=O)N[C@H](C(=O)N[C@@H](C)C(=O)N[C@@H](CCCCN)C(=O)N[C@@H](C)C(=O)N[C@@H](C)C(=O)N[C@H](C)C(N)=O)[C@@H](C)O [Peptide 762.02] (H-[dA]AYAAAATAKAA[dA]-NH2)
-- reply 694

###

# EXPERIMENTAL SYSTEM: DRB1*1101 (DR5w11) (Homo sapiens, UniProt P01903+P01911, A100R/A169T/A87E/I96F/K41T/L162R/M171V/P40S/Q125H/Q178H/Q39Y/Q99D/R42S/S66Y/T262R/V115G/W38E)
# Construct: used as sources of human HLA class II molecules; endogenous in cells; host or cells: SWEIG (EBV-transformed homozygous B cell line)
# Sequence (P01903 26-254, other chains not shown): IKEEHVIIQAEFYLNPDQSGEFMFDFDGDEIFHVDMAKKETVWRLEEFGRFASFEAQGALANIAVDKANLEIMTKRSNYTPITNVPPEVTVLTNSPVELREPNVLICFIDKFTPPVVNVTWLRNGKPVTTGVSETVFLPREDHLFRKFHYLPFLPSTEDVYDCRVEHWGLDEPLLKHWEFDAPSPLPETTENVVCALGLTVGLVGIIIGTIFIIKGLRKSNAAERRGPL
# PROTOCOL: Class II peptide-binding assay, DR5w11;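 note: competition by unlabeled test peptide against iodinated probe peptide binding to affinity-purified HLA-DR, class II amount titrated beforehand, half-maximal inhibitory concentration read as approximate Kd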
# TEST SETTINGS: read-out: In IC50 Format DR5w11 nM; Table VIII; values in parentheses read as lower bounds
Ends that are not written are not given here.
READOUT KIND: IC50

-- ask Can you look up the measured IC50 of ARLLDIDETEYHADG [Peptide 39.0366] for me?
-- reply > 25 µM

###

# EXPERIMENTAL SYSTEM: DRB5*0101 (DR2w2a) (Homo sapiens, UniProt P01903+Q30154)
# Construct: used as sources of human HLA class II molecules; endogenous in cells; host or cells: GM3107 (EBV-transformed homozygous B cell line)
# PROTOCOL: Class II peptide-binding assay, DR2w2a (DR2w2B2);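 note: competitive binding assay: unlabeled peptide inhibiting binding of a radiolabeled probe peptide to purified DR molecules at pH 7.0, IC50 approximating Kd, lower means stronger binding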
# TEST SETTINGS: read-out: DR2w2B2 nM (In IC50 Format); purified HLA DR2w2β2
pIC50: −log10 of the molar value. Square brackets hold non-standard residues; d marks the D form. Peptide text beside a SMILES is read from it.
Tag: T if measured pIC50 is not below 7, F if it is.

-- ask Could you tell me if the measured pIC50 of CC[C@H](C)[C@H](NC(=O)[C@H](CCCNC(=N)N)NC(=O)[C@H](CO)NC(=O)[C@H](Cc1ccccc1)NC(=O)[C@@H](NC(=O)[C@H](CO)NC(=O)[C@H](CO)NC(=O)[C@H](CC(C)C)NC(=O)[C@@H]1CCCN1C(=O)[C@H](CO)NC(=O)[C@H](C)NC(=O)[C@@H](NC(=O)[C@@H](NC(=O)[C@H](CC(C)C)NC(=O)[C@@H](NC(=O)[C@@H]1CCCN1C(=O)[C@@H](N)CC(N)=O)C(C)C)[C@@H](C)O)[C@@H](C)O)[C@@H](C)CC)C(=O)O [Peptide 801.02] reaches 7 or more?
-- reply F

-- ask Then this compound: CC[C@H](C)[C@H](NC(=O)[C@H](C)NC(=O)CNC(=O)[C@H](Cc1ccccc1)NC(=O)[C@H](CC(N)=O)NC(=O)[C@H](CC(N)=O)NC(=O)[C@H](N)CO)C(=O)N[C@@H](CC(C)C)C(=O)N[C@@H](CO)C(=O)N[C@@H](CO)C(=O)N[C@H](C(=O)N[C@@H](CC(N)=O)C(=O)N[C@H](C(=O)NCC(N)=O)C(C)C)[C@@H](C)O [Peptide 735.05] (H-[dS]NNFGAILSSTNVG-NH2)
-- reply F

-- ask Then this compound: C[C@H](NC(=O)[C@H](C)NC(=O)[C@H](C)NC(=O)[C@H](C)NC(=O)[C@H](Cc1ccc(O)cc1)NC(=O)[C@H](C)NC(=O)[C@@H](C)N)C(=O)N[C@@H](C)C(=O)N[C@@H](C)C(=O)N[C@@H](CCCCN)C(=O)N[C@@H](C)C(=O)N[C@@H](C)C(=O)N[C@H](C)C(N)=O [Peptide 762.01] (H-[dA]AYAAAAAAKAA[dA]-NH2)
-- reply T

-- ask Then this compound: CC(C)C[C@H](NC(=O)[C@@H](NC(=O)[C@@H](NC(=O)[C@H](CCC(N)=O)NC(=O)[C@H](CCCNC(=N)N)NC(=O)[C@H](CCC(N)=O)NC(=O)[C@H](Cc1ccccc1)NC(=O)[C@H](CCCNC(=N)N)NC(=O)[C@H](C)NC(=O)[C@H](N)Cc1ccc(O)cc1)[C@@H](C)O)[C@@H](C)O)C(=O)N[C@@H](CCCCN)C(=O)N[C@@H](C)C(=O)N[C@@H](C)C(=O)N[C@H](C)C(N)=O [Peptide 781.09] (H-[dY]ARFQRQTTLKAA[dA]-NH2)
-- reply T

Hello, the source for this data is patent EP1388586A2, in case you need it.
